Ref: patent US7268232B2

target.system: UniProtKB P10275
procedure.text: Receptor Selection and Amplification (R-SAT) assay, androgen receptor agonist activity
pEC50: −log10 of the molar value. Where a name gives a salt, the structure may show the parent alone.
# cutoff 8 applies to pEC50; >= gives fulfilled, < gives not fulfilled

Q. Quick check: does N#Cc1ccc(N2C3CCC2CC(OC(=O)CCN2CCOCC2)C3)c2ccccc12 (stereo not shown) [156AF32-246, hydrochloride] have pEC50 greater than or equal to 8?
A. not fulfilled

Q. Quick check: does N#Cc1ccc(N2[C@@H]3CC[C@H]2CC(NCCc2c[nH]cn2)C3)c2ccccc12 (mixture of isomers) [156AF11-229, dihydrochloride] have pEC50 greater than or equal to 8?
A. not fulfilled

Q. Quick check: does N#Cc1ccc(N2CCC(O)C2)c2ccccc12 (stereo not shown) have pEC50 greater than or equal to 8?
A. not fulfilled

Q. Quick check: does CC1(O)CC2CCC(C1)N2c1ccc(C#N)c2ccccc12 (stereo not shown) have pEC50 greater than or equal to 8?
A. fulfilled

###

target.system: Androgen AR receptor (Homo sapiens, UniProt P10275)
Sequence (P10275 whole entry): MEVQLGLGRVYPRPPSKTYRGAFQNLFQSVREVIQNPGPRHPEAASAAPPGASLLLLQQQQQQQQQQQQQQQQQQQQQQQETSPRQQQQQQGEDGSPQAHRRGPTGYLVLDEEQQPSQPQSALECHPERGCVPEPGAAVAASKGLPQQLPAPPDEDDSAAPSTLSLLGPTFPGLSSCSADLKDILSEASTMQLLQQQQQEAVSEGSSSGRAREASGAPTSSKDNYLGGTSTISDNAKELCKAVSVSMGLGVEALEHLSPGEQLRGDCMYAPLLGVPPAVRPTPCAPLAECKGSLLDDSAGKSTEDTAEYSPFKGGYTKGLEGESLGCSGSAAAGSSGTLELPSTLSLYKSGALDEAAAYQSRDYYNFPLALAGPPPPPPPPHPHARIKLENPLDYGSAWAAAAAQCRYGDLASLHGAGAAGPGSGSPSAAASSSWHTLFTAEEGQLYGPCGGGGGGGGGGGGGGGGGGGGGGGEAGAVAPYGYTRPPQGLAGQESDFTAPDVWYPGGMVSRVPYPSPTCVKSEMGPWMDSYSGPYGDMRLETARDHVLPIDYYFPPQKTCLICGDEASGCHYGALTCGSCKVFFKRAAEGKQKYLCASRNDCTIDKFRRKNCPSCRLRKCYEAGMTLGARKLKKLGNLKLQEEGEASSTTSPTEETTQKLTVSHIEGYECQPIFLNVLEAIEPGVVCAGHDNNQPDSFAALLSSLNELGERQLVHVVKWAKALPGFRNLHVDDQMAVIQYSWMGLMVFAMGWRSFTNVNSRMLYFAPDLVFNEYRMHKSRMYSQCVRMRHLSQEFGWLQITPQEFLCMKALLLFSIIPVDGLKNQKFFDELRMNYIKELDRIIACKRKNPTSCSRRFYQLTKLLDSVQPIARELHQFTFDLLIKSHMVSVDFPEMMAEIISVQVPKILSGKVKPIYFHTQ
procedure.text: Receptor Selection and Amplification (R-SAT) assay, androgen receptor agonist activity
quantity.measured: pEC50
Note: pEC50 values are expressed as the negative base-10 logarithm of concentration in M.

Q. Look up and report pEC50, with Androgen AR receptor (Homo sapiens, UniProt P10275) as system, for N#Cc1ccc(N2CCCCC2)c2ccccc12
A. 8.10

Q. Look up and report pEC50, with Androgen AR receptor (Homo sapiens, UniProt P10275) as system, for CC1C=CC(C)N1c1ccc(C#N)c2ccccc12 (stereo not drawn)
A. 8.10

Q. Look up and report pEC50, with Androgen AR receptor (Homo sapiens, UniProt P10275) as system, for CC1CCC(C)N1c1ccc([N+](=O)[O-])c2ccccc12 (stereo not drawn)
A. 8.10
